Test system: Felis catus
Assay: Effective dose required to produce an increase in dP/dt50, blood pressure by 1500 mmHg/s was determined in cat by intravenous administration
Type: functional
readoutName: ED1.5 (mg/kg)
Record the value in mg/kg, omitting the unit from your answer.

These recorded examples may help you get a feel for the data.
>>> df
                             smilesnotation  readoutname   unit   val
0  CC1(C)C(=O)Nc2cc3[nH]c(-c4ccnc(Cl)c4)nc3cc21        ED1.5  mg/kg  0.07
1  CC1(C)C(=O)Nc2cc3[nH]c(-c4ccnc(O)c4)nc3cc21        ED1.5  mg/kg  0.21

Query compound follows.
Tell me the measured ED1.5 of `CC1(C)C(=O)Nc2cc3[nH]c(-c4ccccn4)nc3cc21` , please.
0.23
